# Assayed target: ScBzz1-D1
# Assay info: SPOT peptide array binding signal intensity (averaged, normalized) (arbitrary units (background-subtracted, floor 0; scale differs between SH3 domains)); higher = stronger binding of the SH3 domain to the peptide
SPOT peptide array binding signal intensity class ranges: low (below 10), middle (10 to below 30), high (30 or more)

Query: In plain terms, what class is `PPPPPPPPPPLPQSL` ?
Result: low

Query: Could you tell me which band `PELAPKREAPKPPAN` belongs to?
Result: high

Query: Hi, small favor: classify `IRMPSNPALPKKLLN` by its SPOT peptide array binding signal intensity when you get a moment.
Result: middle

Query: Band for `QPWTDQFEKLEKEVS` ?
Result: middle

Query: Kindly identify the class of `NFLRLLIGLPSQNEL` .
Result: middle

Query: Lab log: `DKKTKPTPPPKPSHL` — assign SPOT peptide array binding signal intensity category
Result: low

Query: Which SPOT peptide array binding signal intensity category applies to `IAPIPMPKPNPTHIS` here?
Result: low

Query: Exercise: read the entry `YHSRRHPLALGFKYV` and state which class it falls under.
Result: low

Query: Each binder maps to one class by SPOT peptide array binding signal intensity. Which class for `VDFTLPPPPPPPGLD` ?
Result: low

Query: Which of the defined bands does the recorded SPOT peptide array binding signal intensity of `APPLPPTAPPPPSLP` sit within?
Result: low

Query: Which class is correct for the following binder? `ATKSASPTLPTRRSR`
Result: high

Query: Band for the recorded SPOT peptide array binding signal intensity of `LLIRWLILMPLVGSR` ?
Result: high

Query: Category lookup for the binder `AHFQPQRTAPKPPIS`
Result: middle

Query: Hello team, could you let me know which band the following binder falls into: `GKLKHIPRRPYEIER`
Result: middle

Query: GET /class?item= `RPPRPPPKPLHLRTE`
Result: high

Query: Lab log: `HRRRRVFSIPSLKSI` — assign SPOT peptide array binding signal intensity category
Result: middle

Query: Band for the recorded SPOT peptide array binding signal intensity of `RRGPAPPPPPRASRP` ?
Result: high

Query: // return the class label for `ALKQKKIPPPFKPHL`
Result: low

Query: Hi, small favor: classify `VYTRTAFQIPGDDKI` by its SPOT peptide array binding signal intensity when you get a moment.
Result: middle

Query: Pick a category. Item: `IHTRRPSSTSQYLIR`
Result: high

Query: State the band of `PHNPSPFFPPPDFND`
Result: low

Query: Which bin should I file `RKQRSIPLSPIVPES` under?
Result: middle

Query: Lab note: which band did `VKPRQLFPIPLNKVD` land in?
Result: middle

Query: Where would `PSPSSSPPPIPKTAN` land among the classes by reported SPOT peptide array binding signal intensity?
Result: low

Query: Band for `SKAKRPKFLLDLQIK` ?
Result: high

Query: For `SGVRLPAPPPPPRRG` , which SPOT peptide array binding signal intensity bin applies?
Result: high

Query: Consider `QLMKNLPKIPLLNDI` . To which SPOT peptide array binding signal intensity class does it belong?
Result: middle

Query: Returns: class label. Input: `KRKRFNLLLPKPYLT`
Result: low

Query: Category of `DLPLPDLPPEPPTEL` :
Result: low
